The values you see were collected from ChEMBL document CHEMBL4340544.

target: Peptidyl-prolyl cis-trans isomerase NIMA-interacting 1 (Homo sapiens); assay: Inhibition of N-terminal 6-His tagged full length Pin1 (unknown origin) expressed in Escherichia coli at 10 uM using Suc-AEPF-pNA as substrate preincubated for 10 mins followed by substrate addition and measured for 180 secs by spectrophotometry relative to untreated control
Record form. Attribute: inhibition. Fill in for each entry.
Give bare numbers, in %.

Brc1ccc2occ(-c3ccccc3)c2c1    19.5
COc1ccc2occ(-c3ccc(C)c(C)c3)c2c1    23.7
COc1ccc2occ(-c3ccc(C)cc3)c2c1    29.8

I'm hoping you can list inhibition for every compound here, please.
1. COc1cccc2occ(-c3ccccc3)c12
2. c1ccc2c(-c3ccsc3)coc2c1
3. COc1cc(OC)c2c(C)coc2c1

Result:
59.5
43.5
45.9

* * *

biological target: Peptidyl-prolyl cis-trans isomerase NIMA-interacting 1 (Homo sapiens, UniProt Q13526)
Sequence (Q13526 whole entry): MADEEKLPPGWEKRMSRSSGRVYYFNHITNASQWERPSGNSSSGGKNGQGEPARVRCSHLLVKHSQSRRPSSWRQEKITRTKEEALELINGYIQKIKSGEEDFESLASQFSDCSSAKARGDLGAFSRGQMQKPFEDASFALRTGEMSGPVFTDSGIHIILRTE
endpoint.label: IC50
Please state the number and follow it with the unit.

// IC50 value for COc1ccc2c(-c3ccccc3)coc2c1 : 2230 nM

* * *

Record form. Attribute: inhibition. Fill in for each entry.
biological target: Peptidyl-prolyl cis-trans isomerase NIMA-interacting 1 (Homo sapiens); test: Inhibition of N-terminal 6-His tagged full length Pin1 (unknown origin) expressed in Escherichia coli at 10 uM using Suc-AEPF-pNA as substrate preincubated for 10 mins followed by substrate addition and measured for 180 secs by spectrophotometry relative to untreated control
One number for each entry, in %.

Oc1ccc2occ(-c3ccc(Cl)cc3)c2c1    13.8
c1ccc(COc2cc(OCc3ccccc3)c3c(-c4ccccc4)coc3c2)cc1    75.4
COc1ccc2occ(-c3ccc(F)cc3)c2c1    30.7
COc1ccc2occ(-c3ccc(Cl)cc3)c2c1    18
COc1cccc2c(-c3ccccc3)coc12    22.2

I'm hoping you can list inhibition for every compound here, please.
1. Clc1cccc2c(-c3ccccc3)c(-c3ccccc3)oc12
2. Oc1ccc2occ(-c3ccccc3)c2c1
3. Cc1ccc(-c2coc3c(C)c(C)ccc23)cc1
4. COc1ccc(-c2coc3ccc(C#N)cc23)cc1

Result:
13.6
28
64.6
38.2

* * *

Record form. Attribute: inhibition. Fill in for each entry.
target: Peptidyl-prolyl cis-trans isomerase NIMA-interacting 1 (Homo sapiens, UniProt Q13526); assay: Inhibition of N-terminal 6-His tagged full length Pin1 (unknown origin) expressed in Escherichia coli at 10 uM using Suc-AEPF-pNA as substrate preincubated for 10 mins followed by substrate addition and measured for 180 secs by spectrophotometry relative to untreated control
Answers are plain numbers, in %.

Worked cases, answers included:
Clc1ccc(-c2coc3ccccc23)cc1    18.3
c1coc(-c2coc3ccccc23)c1    22.2
CC(C)(C)c1ccc2occ(-c3ccc(Br)cc3)c2c1    28.9
Cc1cccc2c(-c3ccccc3)c(-c3ccccc3)oc12    19.6
Clc1ccc2occ(-c3ccccc3)c2c1    19.2

I'm hoping you can list inhibition for every compound here, please.
1. COc1cc(OC)c2c(-c3ccccc3)coc2c1
2. Cc1ccc(-c2coc3ccc(O)cc23)cc1C
3. COc1ccc2occ(-c3ccccc3)c2c1

Result:
69.6
27.8
27

I'm hoping you can list inhibition for every compound here, please.
1. COc1ccc(-c2coc3ccc([N+](=O)[O-])cc23)cc1
2. Cc1ccc(-c2coc3c(Cl)cc([N+](=O)[O-])cc23)cc1
3. O=C1C=CC(=O)c2c(O)cccc21
4. COc1ccc2c(C)coc2c1

Result:
[43.7, 30.3, 52.6, 65.1]

I'm hoping you can list inhibition for every compound here, please.
1. c1ccc(-c2oc3ccccc3c2-c2ccccc2)cc1
2. COc1cccc(-c2coc3ccccc23)n1

Result:
1. 15.8
2. 34.8

* * *

target: UniProtKB Q13526; assay: Inhibition of N-terminal 6-His tagged full length Pin1 (unknown origin) expressed in Escherichia coli at 10 uM using Suc-AEPF-pNA as substrate preincubated for 10 mins followed by substrate addition and measured for 180 secs by spectrophotometry relative to untreated control
Record form. Attribute: inhibition. Fill in for each entry.
Answers are plain numbers, in %.

Worked cases, answers included:
Cc1ccc(-c2coc3ccc(O)cc23)cc1    33.1
Oc1ccc2occ(-c3ccc(F)cc3)c2c1    23.8
O=[N+]([O-])c1ccc2occ(-c3ccc4c(c3)OCO4)c2c1    23.4

I'm hoping you can list inhibition for every compound here, please.
1. Clc1ccc2oc(-c3ccccc3)c(-c3ccccc3)c2c1
2. O=[N+]([O-])c1ccc2occ(-c3cccc4ccccc34)c2c1
3. COc1ccc2oc(-c3ccccc3)c(-c3ccccc3)c2c1
4. CC(C)(C)c1ccc2occ(-c3ccccc3)c2c1

Result:
22.9
14
25.7
11
